Tested on: TTR
Assay: TTR editing in primary human hepatocytes electroporated with Spy Cas9 protein loaded with dgRNAs (Table 7)
Format: cell-based
Details: dgRNA electroporated with Spy Cas9 protein (RNP)
The following sequences are shown together with reported Avg % Edit values.
Record the value in %, omitting the unit from your answer.

In [3]: df
Out[3]:
                              sequence_code  recorded_metric  output_unit  numeric_readout
0  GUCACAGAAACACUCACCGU (tested as dual guide RNA, chemistry not given here) [CR005301]       Avg % Edit            %            25.37
1  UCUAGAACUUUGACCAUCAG (tested as dual guide RNA, chemistry not given here) [CR003345]       Avg % Edit            %            48.07
2  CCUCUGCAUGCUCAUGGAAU (tested as dual guide RNA, chemistry not given here) [CR003370]       Avg % Edit            %            15.27

Now take the following sequence into account.
Look at this sequence and give its reported Avg % Edit. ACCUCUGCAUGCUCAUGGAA (tested as dual guide RNA, chemistry not given here) [CR003371]
16.20
